- Tested on: A-375
- EXPERIMENT SUMMARY: Antiproliferative activity against human A375 cells after 96 hrs by SRB assay
- Assay type: functional, cell-based
- TEST PARAMETERS: A-375, 96 h
QUANTITY NAME: IC50

**Q:** Find the recorded IC50 belonging to C/C(=C\CC/C(C)=C/CC[C@@H]1[C@@]2(C)CCC(=O)C(C)(C)[C@@H]2CC[C@@]1(C)O)CC/C=C(\C)C(=O)OCCCCOC(=O)[C@@]1(C)[C@H](O)CC[C@@]2(C)[C@H]1CC[C@]1(C)[C@@H]2C(=O)C=C2[C@@H]3[C@@H](C)[C@H](C)CC[C@]3(C)CC[C@]21C and report it.
**A:** > 30 µM

**Q:** Find the recorded IC50 belonging to C/C(=C\CC/C(C)=C/CC[C@@H]1[C@@]2(C)CCC(=O)C(C)(C)[C@@H]2CC[C@@]1(C)O)CC/C=C(\C)C(=O)OCCBr and report it.
**A:** > 30 µM

**Q:** Find the recorded IC50 belonging to C/C(=C\CC/C(C)=C/CC[C@@H]1[C@@]2(C)CCC(=O)C(C)(C)[C@@H]2CC[C@@]1(C)O)CC/C=C(\C)C(=O)OCCCOC(=O)[C@@]1(C)[C@H](O)CC[C@@]2(C)[C@H]1CC[C@]1(C)[C@@H]2C(=O)C=C2[C@@H]3[C@@H](C)[C@H](C)CC[C@]3(C)CC[C@]21C and report it.
**A:** > 30 µM

Data origin: ChEMBL document CHEMBL4138247
